TARGET SYSTEM: Cytochrome P450 2C19 (Homo sapiens) (UniProt P33261)
Sequence (P33261 whole entry, looked up): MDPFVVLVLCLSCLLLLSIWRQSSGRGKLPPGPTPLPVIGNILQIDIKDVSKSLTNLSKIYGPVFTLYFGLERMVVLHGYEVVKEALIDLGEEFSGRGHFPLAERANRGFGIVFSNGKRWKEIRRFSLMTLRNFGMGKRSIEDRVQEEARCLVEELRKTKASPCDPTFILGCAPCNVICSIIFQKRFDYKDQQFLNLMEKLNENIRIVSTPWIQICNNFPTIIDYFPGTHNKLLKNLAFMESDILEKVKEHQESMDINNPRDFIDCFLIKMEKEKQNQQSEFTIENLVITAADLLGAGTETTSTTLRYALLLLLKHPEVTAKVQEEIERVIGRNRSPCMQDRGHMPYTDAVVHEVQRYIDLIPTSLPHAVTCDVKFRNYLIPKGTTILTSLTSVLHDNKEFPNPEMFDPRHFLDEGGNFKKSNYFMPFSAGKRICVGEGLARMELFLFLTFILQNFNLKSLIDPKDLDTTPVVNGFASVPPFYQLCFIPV
TEST NAME: Cytochrome P450 Family 2 Subfamily C Member 19 (CYP2C19) small molecule antagonists: luciferase reporter qHTS assay (AID 1671197); also: nearly all actives have a fitted effect of over 65% in size; also: potency is read from the fitted curve at half-maximal effect
ASSAY CONTEXT: P450-Glo CYP2C19 enzyme, luciferin luminescence, 1 h; series mostly up to 115 µM
Records with an inconclusive call do not appear. Active and inactive are the calls of the source. Calls follow the shape of the dose curve; as a rule, active = well fitted inhibition curve with a large enough effect in the repeat runs; inconclusive = weak or mixed curves; inactive = no such curve, though single readings can be large or run the other way.
REPORTED ENDPOINT: Potency

# MOLECULE, REPORTED ENDPOINT, TEST VALUE
data = [
    ("COP(=O)(OC)Oc1ccc([N+](=O)[O-])cc1", "Potency", "20 µM (active)"),
    ("N#Cc1sc2c(=O)c3ccccc3c(=O)c=2sc1C#N", "Potency", "3.99 µM (active)"),
    ("ClC(Cl)C(Cl)(Cl)Cl", "Potency", "inactive"),
    ("CC[C@]1(O)CC[C@H]2[C@@H]3CCC4=CCCC[C@@H]4[C@H]3CC[C@@]21C", "Potency", "12.3 µM (active)"),
    ("CCC1(CC)C(=O)N=C(O)NC1=O", "Potency", "inactive"),
]

Consider now this further molecule.
Consider the molecule CCO/N=C(\CC)C1=C(O)CC(c2c(C)cc(C)cc2C)CC1=O (configuration not stated) and give its measured Potency.
5.03 µM (active)

* * *

TARGET SYSTEM: Acetylcholinesterase (Homo sapiens) (UniProt P22303)
Sequence (P22303 whole entry, looked up): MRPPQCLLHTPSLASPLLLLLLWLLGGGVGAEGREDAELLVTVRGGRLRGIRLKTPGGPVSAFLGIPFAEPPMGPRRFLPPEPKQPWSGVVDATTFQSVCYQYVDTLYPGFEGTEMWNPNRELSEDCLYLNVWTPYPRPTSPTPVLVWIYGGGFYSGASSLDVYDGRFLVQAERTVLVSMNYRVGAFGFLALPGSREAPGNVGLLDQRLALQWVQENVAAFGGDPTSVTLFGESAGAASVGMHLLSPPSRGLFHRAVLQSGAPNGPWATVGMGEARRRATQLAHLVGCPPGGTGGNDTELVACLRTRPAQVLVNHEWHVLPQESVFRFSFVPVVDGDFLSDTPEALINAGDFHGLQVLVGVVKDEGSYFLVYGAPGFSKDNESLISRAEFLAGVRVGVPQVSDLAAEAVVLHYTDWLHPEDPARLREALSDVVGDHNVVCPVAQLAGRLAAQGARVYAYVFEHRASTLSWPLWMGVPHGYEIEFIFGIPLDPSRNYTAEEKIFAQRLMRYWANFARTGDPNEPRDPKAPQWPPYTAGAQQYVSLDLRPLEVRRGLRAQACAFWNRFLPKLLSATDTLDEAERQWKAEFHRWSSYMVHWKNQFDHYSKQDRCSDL
TEST NAME: Acetylcholinesterase (AChE) small molecule antagonists: colormetric cell-based qHTS assay (AID 1347395); also: nearly all actives have a fitted effect of over 30% in size; also: potency is read from the fitted curve at half-maximal effect
ASSAY CONTEXT: SH-SY5Y cells AChE activity, colorimetric (Ellman); series mostly up to 115 µM
Results filed as inconclusive are left out. Calls of active or inactive are those of the source. Calls follow the shape of the full dose curve.
REPORTED ENDPOINT: Potency

# count of solved cases: 8
# MOLECULE, REPORTED ENDPOINT, TEST VALUE
measured = [
    ("CC(C)=CCN1CC[C@@]2(C)c3cc(O)ccc3C[C@@H]1[C@@H]2C", "Potency", "31.2 µM (active)"),
    ("O=C1C2(Cl)C3(Cl)C4(Cl)C(Cl)(Cl)C5(Cl)C3(Cl)C1(Cl)C5(Cl)C24Cl (configuration not stated)", "Potency", "inactive"),
    ("OCC(Br)CBr (configuration not stated)", "Potency", "inactive"),
    ("CCNS(=O)(=O)C(F)(F)C(F)(F)C(F)(F)C(F)(F)C(F)(F)C(F)(F)C(F)(F)C(F)(F)F", "Potency", "inactive"),
    ("NC1CCC(CC2CCC(N)CC2)CC1 (configuration not stated)", "Potency", "inactive"),
    ("C=CC(=C)C", "Potency", "inactive"),
    ("CCOP(=O)(OCC)Oc1cc(C)nc(C(C)C)n1", "Potency", "0.142 µM (active)"),
    ("COC(=O)C(C)N(C(=O)c1ccco1)c1c(C)cccc1C (configuration not stated)", "Potency", "inactive"),
]

Consider the molecule "COc1c2c(cc3c1OCO3)CCN(C)C2" and give its measured Potency.
inactive

How about this molecule: "COC(=O)N(OC)c1ccccc1COc1ccn(-c2ccc(Cl)cc2)n1"
inactive

How about this molecule: "Nc1c(Cl)c(Cl)c(Cl)c(Cl)c1Cl"
inactive

How about this molecule: CCC1COC(Cn2cncn2)(c2ccc(Cl)cc2Cl)O1 (configuration not stated)
inactive
